# experimentalSystem: RAC-alpha serine/threonine-protein kinase (Homo sapiens)
# protocolText: Inhibition of Akt1 in human AN3CA cells assessed as phosphorylation of Akt at S473 after 2 hrs by Western Blot analysis
# Type: cell-based, AN3-CA
pIC50: −log10 of the molar value.
Binary call on pIC50: TRUE from 6 upward, FALSE beneath that.

Exam item: decide whether the reported pIC50 for Nc1ncccc1-c1nc2cccnc2n1-c1ccc(CNC(=O)c2ccccc2)cc1 is at least 6.
FALSE

Another molecule to check: Nc1ncccc1-c1nc2cccnc2n1-c1ccc(CC(=O)Nc2ccccc2)cc1
FALSE

Another molecule to check: Nc1ncccc1-c1nc2cc(C3CCCC3)cnc2n1-c1ccc(CNC(=O)c2ccccc2)cc1
FALSE

Another molecule to check: CC(=O)Nc1cccc(-c2ccc3nc(-c4cccnc4N)n(-c4ccc(CC(=O)Nc5cccc(F)c5)cc4)c3n2)c1
TRUE

Another molecule to check: Nc1ncccc1-c1nc2ccc(-c3cccnc3)nc2n1-c1ccc(CNC(=O)c2cccc(F)c2)cc1
TRUE

###

Let's go through some pIC50 measurements on RAC-gamma serine/threonine-protein kinase (Homo sapiens, UniProt Q9Y243) together.
Sequence (Q9Y243 whole entry): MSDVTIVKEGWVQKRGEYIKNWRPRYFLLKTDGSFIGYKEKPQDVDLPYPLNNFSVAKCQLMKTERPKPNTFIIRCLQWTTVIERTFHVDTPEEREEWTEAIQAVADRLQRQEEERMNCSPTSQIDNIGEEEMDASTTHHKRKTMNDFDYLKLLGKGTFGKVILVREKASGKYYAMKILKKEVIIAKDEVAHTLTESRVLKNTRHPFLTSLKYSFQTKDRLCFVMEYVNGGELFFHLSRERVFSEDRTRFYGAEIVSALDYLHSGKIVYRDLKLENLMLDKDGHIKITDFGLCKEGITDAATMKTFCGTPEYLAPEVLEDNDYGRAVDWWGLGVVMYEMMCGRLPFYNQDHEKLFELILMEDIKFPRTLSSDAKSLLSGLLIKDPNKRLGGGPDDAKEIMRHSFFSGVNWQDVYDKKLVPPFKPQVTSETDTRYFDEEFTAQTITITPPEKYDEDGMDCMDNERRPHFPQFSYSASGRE
pIC50 here: minus log base 10 of the concentration, concentration in moles per litre.

For the compound Nc1ncccc1-c1nc2ccc(-c3cccnc3)nc2n1-c1ccc(CNC(=O)c2cccc(F)c2)cc1 , what pIC50 is on record?
6.18

Another compound to check: Nc1ncccc1-c1nc2ccc(-c3cccnc3)nc2n1-c1ccc(CC(=O)Nc2ccccc2)cc1
6.41

Another compound to check: Nc1ncccc1-c1nc2cccnc2n1-c1ccc(CC(=O)Nc2ccccc2)cc1
4.66

Another compound to check: Nc1ncccc1-c1nc2cccnc2n1-c1ccc(CNC(=O)c2ccccc2)cc1
4.62

###

# experimentalSystem: RAC-gamma serine/threonine-protein kinase (Homo sapiens)
# protocolText: Binding affinity to Akt3 (1 to 479) expressed in Sf9 cells assessed as change in melting temperature at 15 uM
Binary call on ΔTm: Met from 2 °C upward, Not met beneath that.

Exam item: decide whether the reported ΔTm for Nc1ncccc1-c1nc2ccc(-c3cccnc3)nc2n1-c1ccc(CNC(=O)c2cccc(F)c2)cc1 is at least 2 °C.
Not met

Another compound to check: Nc1ncccc1-c1nc2cc(-c3cccnc3)cnc2n1-c1ccc(CNC(=O)c2cccc(F)c2)cc1
Not met

Another compound to check: Nc1ncccc1-c1nc2cc(-c3cccnc3)cnc2n1-c1ccc(CNC(=O)c2ccccc2)cc1
Not met

Another compound to check: CC(=O)Nc1cccc(-c2ccc3nc(-c4cccnc4N)n(-c4ccc(CC(=O)Nc5cccc(F)c5)cc4)c3n2)c1
Not met

Another compound to check: Nc1ncccc1-c1nc2cc(Br)cnc2n1-c1ccc(CNC(=O)c2ccccc2)cc1
Not met

Another compound to check: Nc1ncccc1-c1nc2ccc(-c3ccccc3)nc2n1-c1ccc(CNC(=O)c2ccccc2)cc1
Not met

Another compound to check: Nc1ncccc1-c1nc2ccc(-c3cccnc3)nc2n1-c1ccc(CNC(=O)c2ccccc2)cc1
Not met

Another compound to check: CC(=O)Nc1cccc(-c2ccc3nc(-c4cccnc4N)n(-c4ccc(CNC(=O)c5ccccc5)cc4)c3n2)c1
Met

Another compound to check: CC(=O)Nc1cccc(-c2ccc3nc(-c4cccnc4N)n(-c4ccc(CNC(=O)c5cccc(F)c5)cc4)c3n2)c1
Met

Another compound to check: Nc1ncccc1-c1nc2ccc(-c3cccnc3)nc2n1-c1ccc(CC(=O)Nc2ccccc2)cc1
Not met

###

# experimentalSystem: RAC-alpha serine/threonine-protein kinase (Homo sapiens, UniProt P31749)
# Sequence (P31749 whole entry): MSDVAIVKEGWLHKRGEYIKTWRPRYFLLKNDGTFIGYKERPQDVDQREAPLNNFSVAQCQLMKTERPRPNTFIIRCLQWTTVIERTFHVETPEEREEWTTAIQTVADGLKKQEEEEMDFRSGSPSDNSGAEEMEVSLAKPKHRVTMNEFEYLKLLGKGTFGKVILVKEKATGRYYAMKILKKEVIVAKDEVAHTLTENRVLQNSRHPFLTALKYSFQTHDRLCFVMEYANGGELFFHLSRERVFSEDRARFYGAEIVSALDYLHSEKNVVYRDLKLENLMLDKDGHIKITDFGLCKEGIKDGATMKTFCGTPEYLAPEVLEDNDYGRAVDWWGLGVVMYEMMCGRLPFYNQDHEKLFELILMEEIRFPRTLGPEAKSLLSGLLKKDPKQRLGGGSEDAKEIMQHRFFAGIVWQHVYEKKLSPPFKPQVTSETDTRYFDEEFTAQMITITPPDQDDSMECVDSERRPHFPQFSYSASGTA
# protocolText: Inhibition of Akt1 in human AN3CA cells assessed as phosphorylation PRAS40 at T246 after 2 hrs by Western Blot analysis
# Assay type: cell-based, AN3-CA
assayEndpoint: IC50 (µM)
Report the figure in µM without appending any unit label.

For the compound Nc1ncccc1-c1nc2cc(-c3ccccc3)cnc2n1-c1ccc(CNC(=O)c2ccccc2)cc1 , what IC50 is on record?
0.98

Another compound to check: CC(=O)Nc1cccc(-c2ccc3nc(-c4cccnc4N)n(-c4ccc(CNC(=O)c5ccccc5)cc4)c3n2)c1
0.84

Another compound to check: Nc1ncccc1-c1nc2ccc(-c3cccnc3)nc2n1-c1ccc(CC(=O)Nc2ccccc2)cc1
2.5

Another compound to check: Nc1ncccc1-c1nc2ccc(-c3cccnc3)nc2n1-c1ccc(CNC(=O)c2cccc(F)c2)cc1
2.1

Another compound to check: Nc1ncccc1-c1nc2ccc(-c3cccnc3)nc2n1-c1ccc(CNC(=O)c2ccccc2)cc1
3.2

Another compound to check: Nc1ncccc1-c1nc2cc(-c3cccnc3)cnc2n1-c1ccc(CNC(=O)c2cccc(F)c2)cc1
0.82

###

Please provide measured half-life at 1 µM for the entries that follow.
# protocolText: Half life in male CD1 mouse liver microsomes at 1 uM by LC/MS/MS
# Type: ADME, Microsome

For the molecule Nc1ncccc1-c1nc2cc(-c3cccnc3)cnc2n1-c1ccc(CNC(=O)c2ccccc2)cc1 , what half-life at 1 µM is on record?
> 1 h

Another molecule to check: CC(=O)Nc1cccc(-c2ccc3nc(-c4cccnc4N)n(-c4ccc(CNC(=O)c5cccc(F)c5)cc4)c3n2)c1
> 0.5 h

Another molecule to check: Nc1ncccc1-c1nc2cccnc2n1-c1ccc(CC(=O)Nc2ccccc2)cc1
> 1 h

Another molecule to check: Nc1ncccc1-c1nc2cccnc2n1-c1ccc(CNC(=O)c2ccccc2)cc1
> 1 h

###

# experimentalSystem: RAC-alpha serine/threonine-protein kinase (Homo sapiens)
# protocolText: Inhibition of Akt 1 in human AN3CA cells assessed as phosphorylation of Akt at T308 after 2 hrs by Western Blot analysis
# Type: cell-based, AN3-CA
assayEndpoint: pIC50
pIC50 here: minus log base 10 of the concentration, concentration in moles per litre.

For the compound CC(=O)Nc1cccc(-c2ccc3nc(-c4cccnc4N)n(-c4ccc(CNC(=O)c5ccccc5)cc4)c3n2)c1 , what pIC50 is on record?
6.77

Another compound to check: Nc1ncccc1-c1nc2ccc(-c3cccnc3)nc2n1-c1ccc(CNC(=O)c2cccc(F)c2)cc1
6.47

Another compound to check: Nc1ncccc1-c1nc2ccc(-c3cccnc3)nc2n1-c1ccc(CC(=O)Nc2ccccc2)cc1
7.29

Another compound to check: Nc1ncccc1-c1nc2cc(C3CCCC3)cnc2n1-c1ccc(CNC(=O)c2ccccc2)cc1
5.03

Another compound to check: Nc1ncccc1-c1nc2ccc(-c3cccnc3)nc2n1-c1ccc(CNC(=O)c2ccccc2)cc1
5.38

Another compound to check: Nc1ncccc1-c1nc2cc(-c3ccccc3)cnc2n1-c1ccc(CNC(=O)c2ccccc2)cc1
5.96

###

# protocolText: Plasma concentration in CD1 mouse at 250 mg/kg, po after 2 hrs by LC/MS/MS analysis
# Type: ADME, organism-based
# Parameters: dose 250 mg/kg, route oral
assayEndpoint: concentration at 2 h (nM)
Report the figure in nM without appending any unit label.

For the compound CC(=O)Nc1cccc(-c2ccc3nc(-c4cccnc4N)n(-c4ccc(CNC(=O)c5cccc(F)c5)cc4)c3n2)c1 , what concentration at 2 h is on record?
2000

###

# protocolText: Half life in female CD1 mouse liver microsomes at 1 uM by LC/MS/MS
# Format: ADME, Microsome
assayEndpoint: half-life at 1 µM

For the compound Nc1ncccc1-c1nc2cc(-c3cccnc3)cnc2n1-c1ccc(CNC(=O)c2ccccc2)cc1 , what half-life at 1 µM is on record?
> 1 h

Another compound to check: CC(=O)Nc1cccc(-c2ccc3nc(-c4cccnc4N)n(-c4ccc(CNC(=O)c5cccc(F)c5)cc4)c3n2)c1
> 0.5 h

Another compound to check: Nc1ncccc1-c1nc2cccnc2n1-c1ccc(CNC(=O)c2ccccc2)cc1
> 1 h

Another compound to check: Nc1ncccc1-c1nc2cccnc2n1-c1ccc(CC(=O)Nc2ccccc2)cc1
> 1 h

###

# experimentalSystem: Cytochrome P450 2C19 (Homo sapiens)
# Sequence (P33261 whole entry): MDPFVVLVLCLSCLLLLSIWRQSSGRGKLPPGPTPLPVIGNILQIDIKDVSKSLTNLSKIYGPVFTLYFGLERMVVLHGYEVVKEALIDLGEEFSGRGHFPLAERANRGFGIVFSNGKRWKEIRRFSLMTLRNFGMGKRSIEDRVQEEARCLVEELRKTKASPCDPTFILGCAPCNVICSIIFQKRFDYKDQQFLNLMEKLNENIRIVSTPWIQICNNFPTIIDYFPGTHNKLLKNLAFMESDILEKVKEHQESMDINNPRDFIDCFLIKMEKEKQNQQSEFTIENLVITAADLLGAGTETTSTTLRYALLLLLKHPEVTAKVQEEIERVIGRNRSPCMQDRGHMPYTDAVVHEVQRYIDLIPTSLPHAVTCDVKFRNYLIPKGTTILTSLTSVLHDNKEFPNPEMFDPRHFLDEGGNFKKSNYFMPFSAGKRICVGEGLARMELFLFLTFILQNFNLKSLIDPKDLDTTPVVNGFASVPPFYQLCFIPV
assayEndpoint: pIC50
pIC50 here: minus log base 10 of the concentration, concentration in moles per litre.

For the molecule CC(=O)Nc1cccc(-c2ccc3nc(-c4cccnc4N)n(-c4ccc(CNC(=O)c5cccc(F)c5)cc4)c3n2)c1 , what pIC50 is on record?
6.00

###

Please provide measured pIC50 for the entries that follow.
# experimentalSystem: RAC-alpha serine/threonine-protein kinase (Homo sapiens)
# protocolText: Inhibition of Akt 1 in human AN3CA cells assessed as phosphorylation of Akt at T308 after 2 hrs by Western Blot analysis
# Type: cell-based, AN3-CA
pIC50 here: minus log base 10 of the concentration, concentration in moles per litre.

For the compound CC(=O)Nc1cccc(-c2ccc3nc(-c4cccnc4N)n(-c4ccc(CNC(=O)c5cccc(F)c5)cc4)c3n2)c1 , what pIC50 is on record?
7.35

Another compound to check: Nc1ncccc1-c1nc2cc(-c3cccnc3)cnc2n1-c1ccc(CNC(=O)c2cccc(F)c2)cc1
7.31

Another compound to check: Nc1ncccc1-c1nc2cc(-c3cccnc3)cnc2n1-c1ccc(CNC(=O)c2ccccc2)cc1
7.04

Another compound to check: CC(=O)Nc1cccc(-c2ccc3nc(-c4cccnc4N)n(-c4ccc(CC(=O)Nc5cccc(F)c5)cc4)c3n2)c1
6.59

These entries and their values trace back to ChEMBL document CHEMBL2176970.
